system: hERG; assay: Selectivity ratio of IC50 for inhibition of hERG by automated patch clamp analysis to IC50 for antiproliferative activity against human Hep3B cells assessed as reduction in cell viability incubated for 72 hrs by MTT assay; format: toxicity, cell-based; conditions: read-out: Ratio IC50
measured-metric: selectivity ratio at 72 h

Record `COc1cccc(CNCc2c(C(=O)O)n(Cc3ccc(C)cc3)c3cc(C(C)C)ccc23)c1` / hERG, selectivity ratio at 72 h recorded as 8.5

###

test system: hERG; assay: Selectivity ratio of IC50 for inhibition of hERG by automated patch clamp analysis to IC50 for antiproliferative activity against human SNU-387 cells assessed as reduction in cell viability incubated for 72 hrs by MTT assay; type: toxicity, cell-based; settings: read-out: Ratio IC50
measured-metric: selectivity ratio at 72 h
Keep it simple and answer with nothing but the number.

selectivity ratio at 72 h reading for `COc1cccc(CNCc2c(C(=O)O)n(Cc3ccc(C)cc3)c3cc(C(C)C)ccc23)c1` : 6.32

###

system: hERG; assay: Selectivity ratio of IC50 for inhibition of hERG by automated patch clamp analysis to IC50 for antiproliferative activity against human SMMC-7721 cells assessed as reduction in cell viability incubated for 72 hrs by MTT assay; format: toxicity, cell-based; conditions: read-out: Ratio IC50
measured-metric: selectivity ratio at 72 h
Keep it simple and answer with nothing but the number.

selectivity ratio at 72 h reading for `COc1cccc(CNCc2c(C(=O)O)n(Cc3ccc(C)cc3)c3cc(C(C)C)ccc23)c1` : 11.8

###

tested on: SMMC-7721; assay: Antiproliferative activity against human SMMC-7721 cells assessed as reduction in cell viability incubated for 72 hrs by MTT assay; format: functional, cell-based; conditions: SMMC-7721, 72 h
The label true is reserved for IC50 strictly under 6 µM; false covers values equal to or above it.

Known results for compounds:
- compound: "COc1cccc(CNCc2c(C(=O)O)n(Cc3ccccc3)c3cc(C(C)C)ccc23)c1"
  measurement-target: "SMMC-7721"
  label-class: "true"
- compound: "COc1ccc(Cn2c(C(=O)O)c(CNCc3cccc(O)c3)c3ccc(C(C)C)cc32)cc1"
  measurement-target: "SMMC-7721"
  label-class: "true"
- compound: "COc1cccc(CNCc2c(C(=O)O)n(Cc3ccccc3)c3cc(C)ccc23)c1"
  measurement-target: "SMMC-7721"
  label-class: "true"
- compound: "COc1cccc(CNCc2c(C(=O)O)n(Cc3ccc(C)cc3)c3cc(C(C)C)ccc23)c1"
  measurement-target: "SMMC-7721"
  label-class: "true"
- compound: "COc1ccc(Cn2c(C(=O)O)c(CNCc3cccc(O)c3)c3ccc(C)cc32)cc1"
  measurement-target: "SMMC-7721"
  label-class: "false"

Problem: Lab log: compare recorded IC50 with 6 µM; is it strictly lower for CNC(=O)c1cc(Oc2ccc(NC(=O)Nc3ccc(Cl)c(C(F)(F)F)c3)cc2)ccn1 [SORAFENIB] ?
Result: true

Problem: Lab log: compare recorded IC50 with 6 µM; is it strictly lower for `COc1ccc(Cn2c(C(=O)O)c(CN(C)Cc3cccc(OC)c3)c3ccc(C)cc32)cc1` ?
Result: false

Problem: Lab log: compare recorded IC50 with 6 µM; is it strictly lower for `COc1cccc(CNCc2c(C(=O)O)n(Cc3ccc(O)cc3)c3cc(C(C)C)ccc23)c1` ?
Result: true

###

system: SMMC-7721; assay: Antiproliferative activity against human SMMC-7721 cells assessed as reduction in cell viability incubated for 72 hrs by MTT assay; type: functional, cell-based; settings: SMMC-7721, 72 h
The label Y is reserved for IC50 strictly under 6 µM; N covers values equal to or above it.

- chemical-structure: "COc1cccc(CNCc2c(C(=O)O)n(Cc3ccccc3F)c3cc(C(C)C)ccc23)c1"
  label-class: "Y"
- chemical-structure: "COc1ccc(Cn2c(C(=O)O)c(CNCc3ccc(O)c(OC)c3)c3ccc(C)cc32)cc1"
  label-class: "N"
- chemical-structure: "COc1cccc(CNCc2c(C(=O)O)n(Cc3ccc(C)cc3)c3cc(C)ccc23)c1"
  label-class: "Y"
- chemical-structure: "COc1cccc(CNCc2c(C(=O)O)n(Cc3ccc(N)cc3)c3cc(C(C)C)ccc23)c1"
  label-class: "N"

Continue with the compound presented below.
Problem: Lab log: compare recorded IC50 with 6 µM; is it strictly lower for `COc1cccc(CNCc2c(C(=O)O)n(Cc3ccc(C)cc3)c3ccccc23)c1` ?
Result: N

###

tested on: hERG; experiment: Selectivity ratio of IC50 for inhibition of hERG by automated patch clamp analysis to IC50 for antiproliferative activity against human BEL-7402/5-FU cells assessed as reduction in cell viability incubated for 72 hrs by MTT assay; type: toxicity, cell-based; conditions: read-out: Ratio IC50
measured-metric: selectivity ratio at 72 h
Keep it simple and answer with nothing but the number.

selectivity ratio at 72 h reading for `COc1cccc(CNCc2c(C(=O)O)n(Cc3ccc(C)cc3)c3cc(C(C)C)ccc23)c1` : 5.84

###

system: hERG; assay: Selectivity ratio of IC50 for inhibition of hERG by automated patch clamp analysis to IC50 for antiproliferative activity against human HepG2 cells assessed as reduction in cell viability incubated for 72 hrs by MTT assay; format: toxicity, cell-based; details: read-out: Ratio IC50
measured-metric: selectivity ratio at 72 h
Keep it simple and answer with nothing but the number.

selectivity ratio at 72 h reading for `COc1cccc(CNCc2c(C(=O)O)n(Cc3ccc(C)cc3)c3cc(C(C)C)ccc23)c1` : 10.1

###

system: SNU-387; assay: Antiproliferative activity against human SNU-387 cells assessed as reduction in cell viability incubated for 72 hrs by MTT assay; format: functional, cell-based; details: SNU-387, 72 h
measured-metric: pIC50
Scale: pIC50 equals -log10([C]), with [C] in mol/L.

Examples with their reported pIC50 follow.
- chemical-structure: "COc1ccc(Cn2c(C(=O)O)c(CNCc3ccc(O)c(OC)c3)c3ccc(C(C)C)cc32)cc1"
  pIC50: 5.27
- chemical-structure: "COc1ccc(Cn2c(C(=O)O)c(CNCc3ccc(O)c(OC)c3)c3ccc(C)cc32)cc1"
  pIC50: 5.21
- chemical-structure: "COc1cccc(CNCc2c(C(=O)O)n(Cc3ccc(C)cc3)c3ccccc23)c1"
  pIC50: 4.84
- chemical-structure: "COc1cccc(CNCc2c(C(=O)O)n(Cc3ccccc3)c3cc(C)ccc23)c1"
  pIC50: 5.09
- chemical-structure: "CNC(=O)c1cc(Oc2ccc(NC(=O)Nc3ccc(Cl)c(C(F)(F)F)c3)cc2)ccn1"
  pIC50: 4.91
- chemical-structure: "COc1ccc(Cn2c(C(=O)O)c(CN(C)Cc3cccc(OC)c3)c3ccc(C)cc32)cc1"
  pIC50: 4.70

pIC50 reading for `COc1cccc(CNCc2c(C(=O)O)n(Cc3ccc(N)cc3)c3cc(C(C)C)ccc23)c1` : 5.05

pIC50 reading for `COc1cccc(CNCc2c(C(=O)O)n(Cc3ccccc3)c3cc(C(C)C)ccc23)c1` : 5.29

pIC50 reading for `COc1cccc(CNCc2c(C(=O)O)n(Cc3ccc(C)cc3)c3cc(C)ccc23)c1` : 5.28

###

tested on: HepG2; test: Antiproliferative activity against human HepG2 cells assessed as reduction in cell viability incubated for 72 hrs by MTT assay; assay type: functional, cell-based; conditions: HepG2, 72 h
measured-metric: IC50 (µM)
Respond numerically; units are µM and should not be typed.

IC50 reading for `COc1cccc(CNCc2c(C(=O)O)n(Cc3ccc(C)cc3)c3ccccc23)c1` : 14

IC50 reading for `COc1ccc(Cn2c(C(=O)O)c(CN(C)Cc3cccc(OC)c3)c3ccc(C)cc32)cc1` : 15.4

IC50 reading for `COc1cccc(CNCc2c(C(=O)O)n(Cc3ccc(O)cc3)c3cc(C(C)C)ccc23)c1` : 1.63

IC50 reading for `COc1ccc(Cn2c(C(=O)O)c(CNCc3ccc(O)c(OC)c3)c3ccc(C(C)C)cc32)cc1` : 3.66

IC50 reading for `COc1ccc(Cn2c(C(=O)O)c(CNCc3cccc(O)c3)c3ccc(C(C)C)cc32)cc1` : 4.92

IC50 reading for `CNC(=O)c1cc(Oc2ccc(NC(=O)Nc3ccc(Cl)c(C(F)(F)F)c3)cc2)ccn1` : 3.3

###

target: Voltage-gated inwardly rectifying potassium channel KCNH2 (Homo sapiens); assay: Inhibition of hERG by automated patch clamp analysis
Sequence (Q12809 whole entry): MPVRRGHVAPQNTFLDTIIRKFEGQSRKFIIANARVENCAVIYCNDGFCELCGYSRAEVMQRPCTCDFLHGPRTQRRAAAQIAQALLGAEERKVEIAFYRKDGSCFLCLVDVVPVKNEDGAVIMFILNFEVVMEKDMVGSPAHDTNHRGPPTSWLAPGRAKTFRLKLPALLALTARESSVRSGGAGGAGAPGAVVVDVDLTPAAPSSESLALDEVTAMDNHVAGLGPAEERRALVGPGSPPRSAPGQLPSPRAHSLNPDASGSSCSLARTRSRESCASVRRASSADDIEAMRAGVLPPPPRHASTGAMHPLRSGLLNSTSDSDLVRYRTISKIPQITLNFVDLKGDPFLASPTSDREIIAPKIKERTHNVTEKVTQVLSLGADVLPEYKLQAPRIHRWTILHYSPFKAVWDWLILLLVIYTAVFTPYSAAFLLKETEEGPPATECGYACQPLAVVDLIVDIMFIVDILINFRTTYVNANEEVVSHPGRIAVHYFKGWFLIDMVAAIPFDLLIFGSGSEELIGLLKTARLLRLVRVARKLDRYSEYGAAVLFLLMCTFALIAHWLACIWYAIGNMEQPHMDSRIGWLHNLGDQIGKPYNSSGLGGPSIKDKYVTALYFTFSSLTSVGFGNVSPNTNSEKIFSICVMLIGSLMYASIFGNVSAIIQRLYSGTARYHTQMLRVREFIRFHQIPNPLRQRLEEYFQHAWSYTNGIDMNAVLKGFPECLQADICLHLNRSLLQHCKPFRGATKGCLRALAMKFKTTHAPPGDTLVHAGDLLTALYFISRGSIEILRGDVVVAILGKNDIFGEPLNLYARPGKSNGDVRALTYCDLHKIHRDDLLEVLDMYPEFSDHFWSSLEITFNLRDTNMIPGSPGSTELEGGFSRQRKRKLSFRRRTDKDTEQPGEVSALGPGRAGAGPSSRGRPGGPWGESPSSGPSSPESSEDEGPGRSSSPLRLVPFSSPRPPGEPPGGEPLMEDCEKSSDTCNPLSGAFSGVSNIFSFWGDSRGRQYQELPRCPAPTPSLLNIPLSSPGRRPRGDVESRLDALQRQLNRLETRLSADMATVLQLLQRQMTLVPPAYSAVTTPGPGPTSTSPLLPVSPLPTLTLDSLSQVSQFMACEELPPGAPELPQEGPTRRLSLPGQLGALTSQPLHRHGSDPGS
measured-metric: IC50 (µM)
Respond numerically; units are µM and should not be typed.

IC50 reading for `COc1cccc(CNCc2c(C(=O)O)n(Cc3ccc(C)cc3)c3cc(C(C)C)ccc23)c1` : 34.6

###

Each item that follows carries a reported IC50.
test system: HepG2; experiment: Antiproliferative activity against human HepG2 cells assessed as reduction in cell viability incubated for 72 hrs by MTT assay; assay type: functional, cell-based; settings: HepG2, 72 h

Examples with their reported IC50 follow.
- chemical-structure: "COc1cccc(CNCc2c(C(=O)O)n(Cc3ccc(C)cc3)c3cc(C)ccc23)c1"
  IC50: "5.05 µM"
- chemical-structure: "COc1cccc(CNCc2c(C(=O)O)n(Cc3ccccc3)c3cc(C)ccc23)c1"
  IC50: "5.21 µM"
- chemical-structure: "COc1cccc(CNCc2c(C(=O)O)n(Cc3ccc(N)cc3)c3cc(C(C)C)ccc23)c1"
  IC50: "7.4 µM"
- chemical-structure: "COc1cccc(CNCc2c(C(=O)O)n(Cc3ccccc3F)c3cc(C(C)C)ccc23)c1"
  IC50: "3.3 µM"

Switching to the query record.
Record `COc1ccc(Cn2c(C(=O)O)c(CNCc3cccc(O)c3)c3ccc(C)cc32)cc1` / HepG2, IC50 recorded as 4.52 µM
